For each entry below, report its Ki value.
- Assayed System: PAF receptor (Homo sapiens)
- Construct: from tissue; host or cells: human platelet membranes
- Sequence (P25105 whole entry): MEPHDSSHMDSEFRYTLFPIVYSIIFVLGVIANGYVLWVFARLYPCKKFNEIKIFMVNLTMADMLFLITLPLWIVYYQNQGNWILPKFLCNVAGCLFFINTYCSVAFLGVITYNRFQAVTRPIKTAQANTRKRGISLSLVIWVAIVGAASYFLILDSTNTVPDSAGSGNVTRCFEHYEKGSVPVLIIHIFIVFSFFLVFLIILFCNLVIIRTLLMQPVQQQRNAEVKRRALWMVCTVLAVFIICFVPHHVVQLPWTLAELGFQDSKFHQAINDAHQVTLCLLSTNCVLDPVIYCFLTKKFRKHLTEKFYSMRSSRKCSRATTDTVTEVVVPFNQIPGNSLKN
- Measurement Notes: [3H]‐WEB‐2086 binding to human platelet membranes
- Applied Conditions: read-out: [3H]‐WEB‐2086 binding inhibition constant (Ki, nM; Mean ± SEM)
Only the number, expressed in nM, is required.

PAF receptor (Homo sapiens) Ki of `C[C@@H]1S[C@H](c2cccnc2)N(C)C1=O` is 9850

PAF receptor (Homo sapiens) Ki of CCCCCCCCCCCCCCCCCCNC(=O)OCC(COP(=O)([O-])OCC[n+]1ccsc1)OC (centres unmarked) is 3780

----------
For each entry below, report its log10(Ki) value.
- Assayed System: PAF receptor (Homo sapiens)
- Construct: from tissue; host or cells: human platelet membranes
- Measurement Notes: [3H]‐PAF binding to human platelet membranes
- Applied Conditions: human platelet membranes; read-out: [3H]‐PAF receptor binding inhibition constant (Ki, nM; Mean ± SEM)
Kindly note that the scale is log10 and the underlying Ki is in nM.

Record `COc1ccc(SCC(=S)N2CCc3c(sc4c3C(c3ccccc3Cl)=NCc3nnc(C)n3-4)C2)cc1OC` . Reported log10(Ki): 1.73

Record CC(C)(CCN1CCN(C(=O)C2CSC(c3cccnc3)N2)CC1)c1ccccc1 (stereo not shown) . Reported log10(Ki): 0.86

Record COC(=O)C1=C(C)NC(C)=C(C(=O)OCCSc2ccccc2)C1C (stereo not shown) . Reported log10(Ki): 2.80

Record `C[C@@H]1S[C@H](c2cccnc2)N(C)C1=O` . Reported log10(Ki): 4.36

Record CCCCCCCCCCCCCCCCCCNC(=O)OCC(COP(=O)([O-])OCC[n+]1ccsc1)OC (stereo not shown) . Reported log10(Ki): 3.49

Record `CCC[n+]1cc(Br)cc(C(=O)N(CCC(=O)NCCOC(=O)N2CCc3ccccc3C2)c2ccccc2)c1.O=[N+]([O-])[O-]` . Reported log10(Ki): 0.97

Record `CCCCCCCCOc1ccccc1C(=O)Nc1ccc(C(=O)OCC[N+](C)(CC)CC)cc1` . Reported log10(Ki): 3.64

src = paper PMC10084252
